Data origin: paper PMC9116648

# assay system: Xanthine oxidase (XO) (Homo sapiens)
# assay name: In vitro XO inhibitory potency (enzyme catalysis reaction, OD 295 nm)
# Type: biochemical
# experimental context: mean±SD, tested in triplicate; xanthine substrate, 37°C, PBS pH 7.4; read-out: IC50
pIC50: −log10 of the molar value.
measurement type: pIC50

>>> test_value("Cc1ccc(S(=O)(=O)NC(=O)N2CCSC2=S)cc1")
5.01
>>> test_value("CC(C)CNC(=O)N1CCSC1=S")
4.72
>>> test_value("O=C(Nc1cccnc1)N1CCSC1=S")
4.84
>>> test_value("O=C(Nc1ccccc1)N1CCSC1=S")
4.99
>>> test_value("CCCN1CCSC1=S")
4.24
>>> test_value("O=C(NCc1ccccc1)N1CCSC1=S")
4.89

[I] O=C(NS(=O)(=O)c1ccccc1)N1CCSC1=S
[II] CCCNC(=O)N1CCSC1=S
## Input Which of the two gives a bigger number for pIC50: I or II ? // return label of chosen record
## Output I
(I: 5.28, II: 4.56)

[P] CCNC(=O)N1CCSC1=S
[Q] CCN1CCSC1=S
[R] SC1=NCCS1
[S] O=C(NC1CCCCC1)N1CCSC1=S
## Input Put the items in order so that reported pIC50 rises from first to last. Please list the labels in the order you were asked to rank them.
## Output R, Q, P, S

[A] CCCCNC(=O)N1CCSC1=S
[B] S=C1SCCN1c1ccccc1
## Input Which gives the smaller pIC50 number: A or B ? The response must carry the label of the picked entry.
## Output B

###

# assay system: Xanthine oxidase (XO) (Homo sapiens)
# assay name: In vitro XO inhibitory potency (enzyme catalysis reaction, OD 295 nm)
# Type: biochemical
# experimental context: S1 Table, mean of three determinations; unit inferred; read-out: IC50 mean
measurement type: IC50 (µM)

>>> test_value("Cc1ccc(S(=O)(=O)NC(=O)N2CCSC2=S)cc1 [Compound 6j]")
9.76
>>> test_value("S=C1SCCN1Cc1ccccc1 [Compound 4d, 3-benzyl-thiazolidine-2-thione]")
114
>>> test_value("SC1=NCCS1 [Compound 3, thiazolidine-2-thione]")
72.2
>>> test_value("O=C(NS(=O)(=O)c1ccccc1)N1CCSC1=S [Compound 6i]")
5.19
>>> test_value("CCCNC(=O)N1CCSC1=S [Compound 6b]")
27.8

[A] CCNC(=O)N1CCSC1=S [Compound 6a]
[B] CCCN1CCSC1=S [Compound 4b, 3-propyl-thiazolidine-2-thione]
## Input Looking at recorded values for IC50, does A or B come in lower? Kindly state the label of the option you pick.
## Output A
(A: 22.9 µM, B: 58.2 µM)

[A] CC(C)CNC(=O)N1CCSC1=S [Compound 6d]
[B] CCN1CCSC1=S [Compound 4a, 3-ethyl-thiazolidine-2-thione]
## Input Smaller IC50 value? Options are A and B Refer to your chosen item by its label in the answer.
## Output A
(A: 19 µM, B: 43.5 µM)

[1] O=C(Nc1ccccc1)N1CCSC1=S [Compound 6e]
[2] CCCCNC(=O)N1CCSC1=S [Compound 6c]
## Input Kindly identify the item with the lower IC50 figure among these two: 1 and 2 Which one? Tell me its label.
## Output 1

###

# assay system: UniProtKB P47989
# assay name: In vitro XO inhibitory potency (enzyme catalysis reaction, OD 295 nm)
# Format: biochemical
# experimental context: IC50 (third replicate column), S1 Table, single determination 3 of 3; unit inferred
measurement type: pIC50
// pIC50: -log10(molar conc.)

## Input Answer with pIC50 of Cc1nc(-c2ccc(OCC(C)C)c(C#N)c2)sc1C(=O)O [Febuxostat, reference compound] measured for UniProtKB P47989.
## Output 5.39

###

# assay system: Xanthine oxidase (XO) (Homo sapiens, UniProt P47989)
# Sequence (P47989 whole entry, species assumed): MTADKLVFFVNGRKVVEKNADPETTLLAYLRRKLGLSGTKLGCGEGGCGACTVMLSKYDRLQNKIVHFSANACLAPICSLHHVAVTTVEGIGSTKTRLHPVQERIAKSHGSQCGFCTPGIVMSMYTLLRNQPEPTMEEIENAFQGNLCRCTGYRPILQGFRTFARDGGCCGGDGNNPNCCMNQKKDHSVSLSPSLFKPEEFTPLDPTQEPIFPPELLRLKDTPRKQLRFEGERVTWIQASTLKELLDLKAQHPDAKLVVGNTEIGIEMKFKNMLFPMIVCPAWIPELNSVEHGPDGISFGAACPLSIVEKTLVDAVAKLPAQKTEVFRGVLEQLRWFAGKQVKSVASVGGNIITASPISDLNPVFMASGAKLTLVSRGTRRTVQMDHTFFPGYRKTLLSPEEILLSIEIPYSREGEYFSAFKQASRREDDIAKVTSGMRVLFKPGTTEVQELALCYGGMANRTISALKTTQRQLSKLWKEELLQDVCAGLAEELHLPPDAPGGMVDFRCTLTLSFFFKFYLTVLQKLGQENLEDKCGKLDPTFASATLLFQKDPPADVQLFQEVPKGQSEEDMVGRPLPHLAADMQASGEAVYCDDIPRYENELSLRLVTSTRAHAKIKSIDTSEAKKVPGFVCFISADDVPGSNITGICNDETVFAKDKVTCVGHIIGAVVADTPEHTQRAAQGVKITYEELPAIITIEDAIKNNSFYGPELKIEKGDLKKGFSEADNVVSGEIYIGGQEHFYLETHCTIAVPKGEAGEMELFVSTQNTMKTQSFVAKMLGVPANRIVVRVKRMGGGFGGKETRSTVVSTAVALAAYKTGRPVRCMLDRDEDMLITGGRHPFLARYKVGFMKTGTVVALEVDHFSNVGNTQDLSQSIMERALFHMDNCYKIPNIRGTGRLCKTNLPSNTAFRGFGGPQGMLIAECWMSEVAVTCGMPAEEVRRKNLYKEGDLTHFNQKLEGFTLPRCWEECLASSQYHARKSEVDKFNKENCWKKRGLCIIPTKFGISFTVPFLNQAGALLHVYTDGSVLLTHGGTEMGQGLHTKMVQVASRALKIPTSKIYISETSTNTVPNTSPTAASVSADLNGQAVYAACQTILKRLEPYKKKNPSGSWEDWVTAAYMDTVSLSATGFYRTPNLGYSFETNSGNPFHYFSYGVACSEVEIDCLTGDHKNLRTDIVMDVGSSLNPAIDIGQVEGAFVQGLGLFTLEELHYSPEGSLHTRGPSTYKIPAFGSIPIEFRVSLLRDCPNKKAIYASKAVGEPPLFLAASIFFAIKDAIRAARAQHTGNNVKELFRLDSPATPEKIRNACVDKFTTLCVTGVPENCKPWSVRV
# assay name: In vitro XO inhibitory potency (enzyme catalysis reaction, OD 295 nm)
# Format: biochemical
# experimental context: S1 Table, mean of three determinations; unit inferred; read-out: IC50 mean
pIC50: −log10 of the molar value.
measurement type: pIC50

>>> test_value("O=C(NC1CCCCC1)N1CCSC1=S")
5.01

[1] O=C(NCc1ccccc1)N1CCSC1=S
[2] S=C1SCCN1c1ccccc1
## Input Among 1 and 2 , whose measured pIC50 is the smaller figure? // output: label of the selected item
## Output 2
(2: 4.29, 1: 4.89)
